- Target Desc: human P2X3 receptor (Homo sapiens (Human), UniProt P56373)
- Sequence (P56373 whole entry): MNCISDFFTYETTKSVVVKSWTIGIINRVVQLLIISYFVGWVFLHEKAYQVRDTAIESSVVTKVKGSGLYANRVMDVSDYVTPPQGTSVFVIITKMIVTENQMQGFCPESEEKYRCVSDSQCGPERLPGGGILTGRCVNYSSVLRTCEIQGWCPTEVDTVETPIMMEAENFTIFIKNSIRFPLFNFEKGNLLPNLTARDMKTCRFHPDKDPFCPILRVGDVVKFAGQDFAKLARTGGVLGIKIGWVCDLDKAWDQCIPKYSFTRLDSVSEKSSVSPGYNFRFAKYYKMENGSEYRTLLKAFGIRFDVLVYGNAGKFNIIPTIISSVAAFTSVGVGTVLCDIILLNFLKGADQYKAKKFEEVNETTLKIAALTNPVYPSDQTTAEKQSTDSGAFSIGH
- Assay: Evaluation of human P2X3 receptor inhibitory activity (Fluo-3 calcium fluorescence, FDSS 3000, ATP stimulation);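 further: stimulus was 50 nM ATP with fluorescence followed for 3 min, and the response per well was peak post-ATP fluorescence divided by the reading at measurement start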
- Format: cell-based
- Experimental Parameters: C6BU-1 cells stably expressing human P2X3 receptor, Fluo-3 fluorescence, FDSS 3000
Metric: pIC50
Numbers only, as −log10 of the molar value.

CCc1oc2ccc(/N=c3\[nH]c(=O)n(CCCC(N)=O)c(=O)n3Cc3ccc(Cl)cc3)cc2c1C = 8.22
C=Cc1cc(/N=c2\[nH]c(=O)n(C[C@H](C)C(=O)OC)c(=O)n2Cc2ccc(C)cc2)ccc1OC(C)C = 8.15
COC(=O)[C@H](C)[C@H](C)n1c(=O)[nH]/c(=N\c2ccc(OC(C)C)cc2)n(Cc2ccc(C)cc2)c1=O = 7.52
CC[C@H](C)COc1ccc(/N=c2\[nH]c(=O)n(CCC(=O)O)c(=O)n2Cc2ccc(C)cc2)cc1 = 6.37
CCn1c(=O)[nH]/c(=N\c2ccc(Oc3ccc(OC)nc3)cc2)n(Cc2ccc(Cl)cc2)c1=O = 8.22
CCOc1ccc(/N=c2\[nH]c(=O)n(C[C@@H](C)C(=O)O)c(=O)n2Cc2ccc(C)cc2)cc1Cl = 7.37

Now look at this entry.
Request: Lab note: need pIC50 with human P2X3 receptor (Homo sapiens (Human), UniProt P56373) for entry CCOC(=O)CCn1c(=O)[nH]/c(=N\c2ccc(OC(C)C)c(Br)c2)n(Cc2ccc(C)cc2)c1=O , please look it up.
Result: 8.40
